Test summary: Bacterial cytotoxicity, strain TA100
Format: cell-based
Details: Salmonella typhimurium, bacterial tester strain TA100 without S9; strain TA100 – S9, 6.25E-07 M; read-out: Cytotoxicity (% of Control Values)
Measured parameter: viability at 625 nM (%)
One number for each entry, in %.

Enquiry: Which viability at 625 nM is listed for OCCc1cc(-c2cncc(OC[C@@H]3CCN3)c2)on1 ?
Return: 101

====

Test summary: Bacterial cytotoxicity, strain TA100
Type: cell-based
Details: Salmonella typhimurium, bacterial tester strain TA100 without S9; strain TA100 – S9, 5.0E-06 M; read-out: Cytotoxicity (% of Control Values)
Excerpt: Supplement prp20002-e00026-sd1.doc, table 4: Table 4.
Measured parameter: viability at 5 µM (%)
Numbers only, in %.

Enquiry: Which viability at 5 µM is listed for OCCc1cc(-c2cncc(OC[C@@H]3CCN3)c2)on1 ?
Return: 103

====

Test summary: Bacterial cytotoxicity, strain TA98
Format: cell-based
Details: Salmonella typhimurium, bacterial tester strain TA98 without S9; strain TA98 – S9, 2.5E-05 M; read-out: Cytotoxicity (% of Control Values)
Measured parameter: viability at 25 µM (%)
One number for each entry, in %.

Enquiry: Which viability at 25 µM is listed for OCCc1cc(-c2cncc(OC[C@@H]3CCN3)c2)on1 ?
Return: 94

====

Test summary: Bacterial cytotoxicity, strain TA100
Type: cell-based
Details: Salmonella typhimurium, bacterial tester strain TA100 without S9; strain TA100 – S9, 2.5E-06 M; read-out: Cytotoxicity (% of Control Values)
Text: Supplement prp20002-e00026-sd1.doc, table 4: Table 4.
Measured parameter: viability at 2.5 µM (%)
Numbers only, in %.

Enquiry: Which viability at 2.5 µM is listed for OCCc1cc(-c2cncc(OC[C@@H]3CCN3)c2)on1 ?
Return: 99

====

Test summary: Bacterial cytotoxicity, strain TA100
Type: cell-based
Details: Salmonella typhimurium, bacterial tester strain TA100 without S9; strain TA100 – S9, 5.0E-05 M; read-out: Cytotoxicity (% of Control Values)
Measured parameter: viability at 50 µM (%)
One number for each entry, in %.

Enquiry: Which viability at 50 µM is listed for OCCc1cc(-c2cncc(OC[C@@H]3CCN3)c2)on1 ?
Return: 125

====

Test summary: Bacterial cytotoxicity, strain TA98
Format: cell-based
Details: Salmonella typhimurium, bacterial tester strain TA98 without S9; strain TA98 – S9, 2.5E-06 M; read-out: Cytotoxicity (% of Control Values)
Measured parameter: viability at 2.5 µM (%)
Numbers only, in %.

Enquiry: Which viability at 2.5 µM is listed for OCCc1cc(-c2cncc(OC[C@@H]3CCN3)c2)on1 ?
Return: 98
